System name: ATPase family AAA domain-containing protein 2 (Homo sapiens, UniProt Q6PL18)
Sequence (Q6PL18 whole entry): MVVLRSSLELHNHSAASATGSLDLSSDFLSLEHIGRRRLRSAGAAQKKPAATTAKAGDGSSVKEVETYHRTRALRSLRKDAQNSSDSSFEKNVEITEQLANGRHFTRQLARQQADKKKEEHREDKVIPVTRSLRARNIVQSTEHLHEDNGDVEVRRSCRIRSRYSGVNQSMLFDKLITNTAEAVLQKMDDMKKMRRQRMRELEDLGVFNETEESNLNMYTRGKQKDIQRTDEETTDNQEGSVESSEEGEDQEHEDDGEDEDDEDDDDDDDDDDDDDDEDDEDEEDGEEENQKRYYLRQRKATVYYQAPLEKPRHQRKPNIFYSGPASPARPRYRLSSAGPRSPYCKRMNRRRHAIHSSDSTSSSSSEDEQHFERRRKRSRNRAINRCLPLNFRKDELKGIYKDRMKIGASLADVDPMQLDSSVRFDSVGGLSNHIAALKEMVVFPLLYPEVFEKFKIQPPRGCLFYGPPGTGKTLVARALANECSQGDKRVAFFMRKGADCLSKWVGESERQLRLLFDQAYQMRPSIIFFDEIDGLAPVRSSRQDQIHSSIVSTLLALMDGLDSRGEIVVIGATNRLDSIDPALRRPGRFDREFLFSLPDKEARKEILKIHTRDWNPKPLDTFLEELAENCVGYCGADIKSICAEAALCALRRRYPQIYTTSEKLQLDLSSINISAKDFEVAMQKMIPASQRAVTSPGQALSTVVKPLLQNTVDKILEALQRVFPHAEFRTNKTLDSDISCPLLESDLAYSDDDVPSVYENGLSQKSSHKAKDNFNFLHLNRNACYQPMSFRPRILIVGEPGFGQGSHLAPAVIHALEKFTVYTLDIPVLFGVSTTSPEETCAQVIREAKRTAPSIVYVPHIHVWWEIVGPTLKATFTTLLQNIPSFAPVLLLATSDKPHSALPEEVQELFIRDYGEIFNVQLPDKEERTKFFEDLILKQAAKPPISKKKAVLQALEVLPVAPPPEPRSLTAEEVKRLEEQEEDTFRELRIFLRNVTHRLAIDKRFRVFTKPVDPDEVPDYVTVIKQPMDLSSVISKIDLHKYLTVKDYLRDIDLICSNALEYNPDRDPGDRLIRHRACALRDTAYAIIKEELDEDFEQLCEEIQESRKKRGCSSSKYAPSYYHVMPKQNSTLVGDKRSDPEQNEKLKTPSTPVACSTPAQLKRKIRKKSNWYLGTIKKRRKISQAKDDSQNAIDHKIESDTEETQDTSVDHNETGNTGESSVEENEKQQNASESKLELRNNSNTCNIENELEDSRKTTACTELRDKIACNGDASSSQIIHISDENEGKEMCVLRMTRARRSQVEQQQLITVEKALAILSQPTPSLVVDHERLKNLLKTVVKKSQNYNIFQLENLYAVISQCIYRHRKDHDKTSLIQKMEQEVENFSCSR
Measured quantity: pIC50
// field semantics: pIC50 = negative decimal log of concentration (mol/L)

Completed entries (count: 5):
> print(dat)
                                   compound  readout.value
1  Cc1cc2ccnc(N[C@@H]3CCNC[C@H]3OCC3CCCC3)c2[nH]c1=O (racemic)           5.10
2  CCCO[C@@H]1CNCC[C@H]1Nc1nccc2cc(C)c(=O)[nH]c12 (racemic)           4.60
3  Cc1cc2c(-c3cccnc3)cnc(N[C@@H]3CCNC[C@H]3OCC3CCOCC3)c2[nH]c1=O           6.60
4  Cc1cc2ccnc(N[C@@H]3CCNC[C@H]3OC(C)C)c2[nH]c1=O (racemic)           4.20
5  Cc1cncc(-c2cnc(N[C@@H]3CCNC[C@H]3OCC3CCOCC3)c3[nH]c(=O)c(C)cc23)c1           6.50

The recorded pIC50 for entry Cc1cc2ccnc(N[C@@H]3CCNC[C@H]3OC[C@H]3CC[C@H](O)CC3)c2[nH]c1=O (racemic) equals 5.30
